Data origin: paper PMC4084896

# Tested on: CYP1A1 mRNA
# measurementProtocol: in vitro
# details: male, human, culture HH54, TCDD 5 nM, 24 h
endpointName: fold induction
Answer field: number only, no words.

[ask] Any idea what its fold induction is? The compound is `Clc1cc2c(cc1Cl)Oc1cc(Cl)c(Cl)cc1O2`
[reply] 101

====

Hi there, I'd appreciate the recorded EC50 for every entry that follows.
# targetUnderTest: aryl hydrocarbon receptor AhR (Homo sapiens, UniProt P35869)
# Construct: endogenous in cells; host or cells: AZ-AHR (stably transfected reporter line derived from HepG2)
# Sequence (P35869 11-848): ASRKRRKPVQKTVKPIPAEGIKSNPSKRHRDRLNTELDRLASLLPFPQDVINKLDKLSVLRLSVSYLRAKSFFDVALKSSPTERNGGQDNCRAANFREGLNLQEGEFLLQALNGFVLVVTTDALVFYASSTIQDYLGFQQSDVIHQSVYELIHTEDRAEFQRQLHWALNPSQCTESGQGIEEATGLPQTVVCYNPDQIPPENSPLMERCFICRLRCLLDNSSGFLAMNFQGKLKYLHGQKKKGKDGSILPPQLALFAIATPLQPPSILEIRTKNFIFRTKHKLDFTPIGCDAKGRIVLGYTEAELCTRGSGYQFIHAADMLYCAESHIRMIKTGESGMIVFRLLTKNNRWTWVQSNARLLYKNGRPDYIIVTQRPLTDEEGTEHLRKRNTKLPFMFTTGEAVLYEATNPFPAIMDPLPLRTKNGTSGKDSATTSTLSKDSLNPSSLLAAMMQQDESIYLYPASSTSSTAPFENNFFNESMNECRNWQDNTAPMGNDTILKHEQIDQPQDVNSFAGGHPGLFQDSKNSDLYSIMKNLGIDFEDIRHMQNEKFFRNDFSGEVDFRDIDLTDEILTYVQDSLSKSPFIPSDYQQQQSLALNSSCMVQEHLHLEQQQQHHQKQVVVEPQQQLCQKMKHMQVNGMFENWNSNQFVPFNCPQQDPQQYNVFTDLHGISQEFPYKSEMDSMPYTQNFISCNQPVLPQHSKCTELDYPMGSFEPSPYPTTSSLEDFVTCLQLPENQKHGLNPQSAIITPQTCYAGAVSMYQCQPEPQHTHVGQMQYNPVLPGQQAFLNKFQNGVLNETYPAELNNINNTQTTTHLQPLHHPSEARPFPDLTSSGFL
# measurementProtocol: AhR gene reporter assay in AZ-AHR cells, agonist mode
# Type: cell-based
# details: 24 h, agonist mode
Remember to put the unit after the number in your answer.

[ask] Any idea what its EC50 is? The compound is CC(=O)N1CCN(c2ccc(OC[C@@H]3CO[C@@](Cn4ccnc4)(c4ccc(Cl)cc4Cl)O3)cc2)CC1 [(−)-KET, (2S,4R)-(−)-KET]
[reply] 2.2 µM

[ask] Any idea what its EC50 is? The compound is CC(=O)N1CCN(c2ccc(OCC3COC(Cn4ccnc4)(c4ccc(Cl)cc4Cl)O3)cc2)CC1 (racemic) [rac-KET, ketoconazole]
[reply] 5.2 µM

[ask] Any idea what its EC50 is? The compound is CC(=O)N1CCN(c2ccc(OC[C@H]3CO[C@](Cn4ccnc4)(c4ccc(Cl)cc4Cl)O3)cc2)CC1 [(+)-KET, (2R,4S)-(+)-KET]
[reply] 3.2 µM
